# protocolNotes: viability loss in human kidney cells – cell-based, CellTiter-Glo luminescence, dry powder, set 17, cytotoxicity control, dose response (AID 977615)
# assayConditions: HEK293T viability, CellTiter-Glo ATP luminescence, 72 h; at 26 µM (top of the series)
measurementType: activity change, negative = cytotoxic (%)
The figure you give is taken to be in %; do not add the unit.

Take a look at these entries with their results.
chemicalStructure: CNC[C@@H]1Oc2cc(Br)ccc2S(=O)(=O)N([C@@H](C)CO)C[C@@H]1C
u: %
activity change, negative = cytotoxic: -16.1
//
chemicalStructure: C[C@@H]1CN([C@@H](C)CO)S(=O)(=O)c2ccc(C#C[C@@H](C)O)cc2O[C@@H]1CN(C)Cc1ccc(-c2ccccc2)cc1
u: %
activity change, negative = cytotoxic: -8.45

Reported activity change, negative = cytotoxic, compound `C[C@@H](O)C#Cc1ccc2c(c1)O[C@@H](CN(C)S(=O)(=O)c1ccc(-c3ccccc3)cc1)[C@@H](C)CN([C@@H](C)CO)S2(=O)=O` : ____
-12.1

Next record, please: `C[C@H]1CN([C@@H](C)CO)S(=O)(=O)c2ccc(Br)cc2O[C@H]1CN(C)Cc1ccc(-c2ccccc2)cc1`
-0.919

Next record, please: `C[C@@H](O)C#Cc1ccc2c(c1)O[C@@H](CN(C)Cc1cccnc1)[C@@H](C)CN([C@@H](C)CO)S2(=O)=O`
2.11

Next record, please: `C[C@H](O)C#Cc1ccc2c(c1)O[C@H](CN(C)Cc1ccc(-c3ccccc3)cc1)[C@H](C)CN([C@@H](C)CO)S2(=O)=O`
-11.3

Next record, please: `CO[C@H]1CN(C)C(=O)c2ccc(NC(=O)c3ccc(F)cc3)cc2OC[C@H](C)N(C(=O)c2ccc(F)cc2)C[C@@H]1C`
1.97

Next record, please: `C[C@@H](O)C#Cc1ccc2c(c1)O[C@@H](CN(C)Cc1ccncc1)[C@@H](C)CN([C@@H](C)CO)S2(=O)=O`
-12

Next record, please: `C[C@@H]1CN([C@H](C)CO)S(=O)(=O)c2ccc(C#C[C@@H](C)O)cc2O[C@@H]1CN(C)Cc1ccc(-c2ccccc2)cc1`
2.1

Next record, please: `C[C@@H]1CN([C@H](C)CO)S(=O)(=O)c2ccc(C#C[C@@H](C)O)cc2O[C@H]1CN(C)Cc1ccc(-c2ccccc2)cc1`
-10.1

Source of measurements: PubChem BioAssay AID977615
